Tested on: OVCAR-4 ovarian
measurement_protocol: NCI tumour cell line growth inhibition, 48 h

molecule	GI50
COP(=O)(OC)C(NC(c1ccccc1)c1ccccc1)c1ccc2c(c1)OCO2 (centres undefined)	30500 nM
c1ccc(Cc2nc3ccc(Nc4ncnc5ccccc45)cc3[nH]2)cc1	> 25000 nM
O=C1c2cccc3cc([N+](=O)[O-])cc(c23)C(=O)N1CCNCCNCCNCCN1C(=O)c2cccc3cc([N+](=O)[O-])cc(c23)C1=O	< 1 nM
CC1=C(/C=C/C(C)=C\C=C\C(C)=C\C(=O)Nc2ccc3c(c2)OCO3)C(C)(C)CCC1	21000 nM
COCCn1cc(-c2csc(-c3c[nH]c4ccccc34)n2)c2cccnc21	1760 nM
COc1ccc(/C=C/C(=O)c2cc3c(N)c(C(=O)Nc4ccccc4Cl)sc3nc2C)cc1	1700 nM
CC[C@]1(O)CC2CN(CCc3c([nH]c4ccccc34)[C@@](C(=O)OC)(c3cc4c(cc3OC)N(C)[C@H]3[C@@](O)(C(=O)OC)[C@H](OC(C)=O)[C@]5(CC)C=CCN6CC[C@]43[C@@H]65)C2)C1 (some centres undefined)	30.3 nM
O=S(=O)([O-])c1cccc2cccc(N=Cc3ccccc3[O-])c12.O=S(=O)([O-])c1cccc2cccc(N=Cc3ccccc3[O-])c12.[O]=[U]=[O]	41600 nM
Cc1ccc(C(CN(C)C)C(=O)c2ccccc2)cc1 (centres undefined)	2760 nM
